settings: 303.15 K; 100 kPa; Liquid; Capillary tube (Ostwald / Ubbelohde) method
Numbers after ± are expanded uncertainties.
METRIC: viscosity

Task: Respond only with viscosity recorded for CC(=O)O.CCCCN [butylammonium acetate]
Result: 397.17 ± 42 mPa·s

Task: Identify measured viscosity associated with CCCC[NH3+].O=C[O-] [butylammonium formate]
Result: 92.68 ± 9.3 mPa·s

Task: Return reported viscosity. Input compound: CCCC(=O)[O-].CCCC[NH3+] [n-butylammonium butanoate]
Result: 599.38 ± 64 mPa·s

Task: Determine from records and report viscosity for CCC(=O)[O-].CCCC[NH3+] [butylammonium propanoate]
Result: 494.64 ± 53 mPa·s

Source of measurements: the NIST ThermoML archive (doi:10.1021/acs.jced.8b00583)
